These entries and their values trace back to patent US20120101110A1.

targetOrTestSystem: human orexin 1 receptors (Homo sapiens)
Sequence (O43613 whole entry): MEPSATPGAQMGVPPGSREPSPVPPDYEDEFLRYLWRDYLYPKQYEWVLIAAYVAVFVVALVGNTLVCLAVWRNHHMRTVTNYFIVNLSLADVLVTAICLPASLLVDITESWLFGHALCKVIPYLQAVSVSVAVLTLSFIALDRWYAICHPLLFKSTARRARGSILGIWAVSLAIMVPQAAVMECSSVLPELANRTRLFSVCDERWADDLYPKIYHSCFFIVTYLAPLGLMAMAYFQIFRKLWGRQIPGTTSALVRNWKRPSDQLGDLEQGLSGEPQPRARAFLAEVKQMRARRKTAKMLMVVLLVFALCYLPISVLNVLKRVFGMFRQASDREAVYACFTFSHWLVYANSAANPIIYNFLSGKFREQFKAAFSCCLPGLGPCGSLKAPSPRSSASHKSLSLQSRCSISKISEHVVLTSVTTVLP
measurementNotes: Calcium accumulation in cells (FLIPR), hOx1R
conditionSet: read-out: FLIPR hOx1R % inhibition value
Below, each of the compounds is paired with its reported inhibition at 10 µM value.
Entry rule: numbers only, all in %.

COCc1ccccc1CN1CCCC2(CCN(c3nc(C)cc(C)n3)CC2)C1=O
31

Incoming: State the recorded inhibition at 10 µM for this entry: `Cc1cncc(N2CCC3(CCCN(Cc4c[nH]c5ncccc45)C3=O)CC2)n1`
Outgoing: 31

Incoming: State the recorded inhibition at 10 µM for this entry: `N#Cc1ccc(N2CCC3(CCCN(Cc4c[nH]c5ccccc45)C3=O)CC2)nc1`
Outgoing: 31

Incoming: State the recorded inhibition at 10 µM for this entry: `Cc1nnc(N2CCC3(CCCN(Cc4c[nH]c5ccccc45)C3=O)CC2)o1`
Outgoing: 12

Incoming: State the recorded inhibition at 10 µM for this entry: `Cc1ccc(N2CCC3(CCCN(Cc4c[nH]c5ccccc45)C3=O)CC2)nc1`
Outgoing: 14

Incoming: State the recorded inhibition at 10 µM for this entry: `O=C1N(Cc2c[nH]c3ccccc23)CCCC12CCN(c1cccc(O)n1)CC2`
Outgoing: 24

----------
targetOrTestSystem: human orexin 2 receptors (Homo sapiens, UniProt O43614)
Sequence (O43614 1-444): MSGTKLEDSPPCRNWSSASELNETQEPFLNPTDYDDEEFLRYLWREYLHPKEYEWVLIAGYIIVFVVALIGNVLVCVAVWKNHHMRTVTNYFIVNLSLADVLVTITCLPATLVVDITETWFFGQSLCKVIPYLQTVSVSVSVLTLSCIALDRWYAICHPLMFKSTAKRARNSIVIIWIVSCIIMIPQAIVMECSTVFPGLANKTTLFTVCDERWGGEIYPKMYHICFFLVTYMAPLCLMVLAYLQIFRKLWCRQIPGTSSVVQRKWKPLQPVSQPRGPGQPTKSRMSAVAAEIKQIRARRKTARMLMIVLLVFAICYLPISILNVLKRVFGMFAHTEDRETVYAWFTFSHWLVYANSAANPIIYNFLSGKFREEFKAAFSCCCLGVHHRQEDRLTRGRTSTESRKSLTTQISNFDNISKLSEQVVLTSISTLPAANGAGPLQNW
measurementNotes: Calcium accumulation in cells (FLIPR), hOx2R
Type: cell-based
conditionSet: cells expressing human orexin 2 receptor; inhibition of orexin A-induced calcium accumulation; Cheng and Prusoff correction
pKi: −log10 of the molar value.
Binary call on pKi: met from 8 upward, not met beneath that.

Solved entries:
N#Cc1ccnc(N2CCC3(CCCN(Cc4c[nH]c5ccccc45)C3=O)CC2)n1
not met
Cc1cc(C)nc(N2CCC3(CCCN(Cc4c[nH]c5ccc(-n6cccn6)cc45)C3=O)CC2)n1
met
Cc1cc(C)nc(N2CCC3(CCCC(=O)N3Cc3cccc4[nH]ccc34)CC2)n1
met

Incoming: # bool: pKi of `O=C1N(Cc2c[nH]c3ccccc23)CCCC12CCN(c1nccc(C(F)(F)F)n1)CC2` >= 8
Outgoing: not met

Incoming: # bool: pKi of `COc1cncc(-c2nn(C)nc2CN2CCCC3(CCN(c4nc(C)cc(C)n4)CC3)C2=O)c1` >= 8
Outgoing: met

Incoming: # bool: pKi of `Cc1cc(C)nc(N2CCC3(CCCN(Cc4cccc(-c5ncccn5)c4)C3=O)CC2)c1` >= 8
Outgoing: not met

Incoming: # bool: pKi of `COCc1cccc(-c2nn(C)nc2CN2CCCC3(CCN(c4nc(C)cc(C)n4)CC3)C2=O)c1` >= 8
Outgoing: met

Incoming: # bool: pKi of `Cc1cc(C#N)cc(N2CCC3(CCCN(Cc4c[nH]c5ccccc45)C3=O)CC2)n1` >= 8
Outgoing: met

Incoming: # bool: pKi of `Cc1cccc(N2CCC3(CCCN(Cc4c[nH]c5ccccc45)C3=O)CC2)c1` >= 8
Outgoing: not met

Incoming: # bool: pKi of `Cc1cc(C)nc(N2CCC3(CCCN(Cc4cccc(-c5ncc(C)o5)c4)C3=O)CC2)n1` >= 8
Outgoing: not met

Incoming: # bool: pKi of `COCc1cccc(CN2CCCC3(CCN(c4nc(C)cc(OC)n4)CC3)C2=O)c1` >= 8
Outgoing: not met

Incoming: # bool: pKi of `O=C1N(Cc2c[nH]c3ccccc23)CCCC12CCN(c1ccc(C(F)(F)F)cn1)CC2` >= 8
Outgoing: not met

Incoming: # bool: pKi of `COCc1ccccc1CN1CCCC2(CCN(c3nc(C)cc(C)n3)CC2)C1=O` >= 8
Outgoing: not met

Incoming: # bool: pKi of `Cc1cnc(N2CCC3(CCCN(Cc4c[nH]c5ccccc45)C3=O)CC2)nc1C` >= 8
Outgoing: not met

Incoming: # bool: pKi of `Cc1cncc(N2CCC3(CCCC(=O)N3Cc3c[nH]c4ccccc34)CC2)n1` >= 8
Outgoing: not met

Incoming: # bool: pKi of `Cc1cc(C)nc(N2CCC3(CCCN(Cc4nn(C)nc4Br)C3=O)CC2)n1` >= 8
Outgoing: not met

Incoming: # bool: pKi of `Cc1cc(C)nc(N2CCC3(CCCN(Cc4cn(C)c5ccccc45)C3=O)CC2)n1` >= 8
Outgoing: not met

Incoming: # bool: pKi of `COc1cncc(N2CCC3(CCCN(Cc4c[nH]c5ncccc45)C3=O)CC2)n1` >= 8
Outgoing: not met

Incoming: # bool: pKi of `Cc1cnc(N2CCC3(CCCN(Cc4c[nH]c5ccccc45)C3=O)CC2)cn1` >= 8
Outgoing: not met

Incoming: # bool: pKi of `N#Cc1ccnc(N2CCC3(CCCN(Cc4cccc(-c5ncccn5)c4)C3=O)CC2)n1` >= 8
Outgoing: not met
